All values here come from patent US8110582B2.

- Test system: UV-induced squamous cell carcinoma (SCC), actinic keratosis (AK), or pre-AK lesions
- RUN_DESCRIPTION: UV-induced epidermal neoplasia in SKH-1 mice, Example 4 (simultaneous initiation, 17 weeks)
- Type: in vivo
- ASSAY_CONDITIONS: 0.1% formulation, twice per week; UV 17 weeks; every SCC, AK and pre-AK lesion scored 1
Cut-off 1 on Avg. Disease Score, inclusive. At or above means Condition met; below means Condition not met.

[
  {
    "STRUCTURE_STRING": "CCCc1nc2c(N)nc3ccccc3c2n1CCCCNC(=O)NC(C)C",
    "CLASS_LABEL": "Condition met"
  },
  {
    "STRUCTURE_STRING": "CCOCc1nc2c(N)nc3ccccc3c2n1NC(C)C",
    "CLASS_LABEL": "Condition met"
  },
  {
    "STRUCTURE_STRING": "CCCCc1nc2c(N)nc3ccccc3c2n1CCCS(C)(=O)=O",
    "CLASS_LABEL": "Condition not met"
  },
  {
    "STRUCTURE_STRING": "COCCc1nc2c(N)nc3c(c2n1CC(C)(C)NS(C)(=O)=O)CCCC3",
    "CLASS_LABEL": "Condition met"
  },
  {
    "STRUCTURE_STRING": "CCc1nc2c(N)nc3ccccc3c2n1CCCCNC(=O)C(C)C",
    "CLASS_LABEL": "Condition met"
  },
  {
    "STRUCTURE_STRING": "CCCCc1nc2c(N)nc3ccccc3c2n1CCS(=O)(=O)CCC",
    "CLASS_LABEL": "Condition not met"
  },
  {
    "STRUCTURE_STRING": "CCOCc1nc2c(N)nc3ccccc3c2n1CC(C)(C)NC(=O)C1CCCCC1",
    "CLASS_LABEL": "Condition not met"
  },
  {
    "STRUCTURE_STRING": "Nc1nc2ccccc2c2c1ncn2CCOCCCc1cccnc1",
    "CLASS_LABEL": "Condition met"
  },
  {
    "STRUCTURE_STRING": "CCCc1nc2c(N)nc3ccccc3c2n1CC(C)(C)NS(C)(=O)=O",
    "CLASS_LABEL": "Condition not met"
  },
  {
    "STRUCTURE_STRING": "CCOCc1nc2c(N)nc(C)c(C)c2n1CC(C)(C)NC(=O)NC1CCCCC1",
    "CLASS_LABEL": "Condition met"
  }
]

====

- Tested on: UV-induced squamous cell carcinoma (SCC), actinic keratosis (AK), or pre-AK lesions
- RUN_DESCRIPTION: UV-induced epidermal neoplasia in SKH-1 mice, Example 4 (simultaneous initiation, 17 weeks)
- Type: in vivo
- ASSAY_CONDITIONS: 0.1% formulation, twice per week; UV five days per week for 17 weeks
QUANTITY_NAME: % Disease (%)

[
  {
    "COMPOUND": "CCCc1nc2c(N)nc3ccccc3c2n1CC(C)(C)NS(C)(=O)=O [IRM6]",
    "VALUE_MEASURED": 13
  },
  {
    "COMPOUND": "Nc1nc2ccccc2c2c1nc1n2CCCC1 [IRM3]",
    "VALUE_MEASURED": 30
  },
  {
    "COMPOUND": "COCCc1nc2c(N)nc3c(c2n1CC(C)(C)NS(C)(=O)=O)CCCC3 [IRM7]",
    "VALUE_MEASURED": 60
  },
  {
    "COMPOUND": "CCc1nc2c(N)nc3ccccc3c2n1CCCCNC(=O)C(C)C [IRM5]",
    "VALUE_MEASURED": 60
  },
  {
    "COMPOUND": "CCCCc1nc2c(N)nc3ccccc3c2n1CCS(=O)(=O)CCC [IRM12]",
    "VALUE_MEASURED": 0
  },
  {
    "COMPOUND": "CCOCc1nc2c(N)nc(C)c(C)c2n1CC(C)(C)NC(=O)NC1CCCCC1 [IRM9]",
    "VALUE_MEASURED": 60
  }
]

====

- Tested on: UV-induced squamous cell carcinoma (SCC), actinic keratosis (AK), or pre-AK lesions
- RUN_DESCRIPTION: UV-induced epidermal neoplasia in SKH-1 mice, Example 4 (simultaneous initiation, 17 weeks)
- Format: in vivo
- ASSAY_CONDITIONS: 0.1% formulation, twice per week; UV five days per week for 17 weeks
Each record is given true if its reported % Disease is strictly below 20%. Records at or above 20% are given false.

[
  {
    "STRUCTURE_STRING": "CCCc1nc2c(N)nc3ccccc3c2n1CCCCNC(=O)NC(C)C",
    "CLASS_LABEL": "false"
  },
  {
    "STRUCTURE_STRING": "Nc1nc2ccccc2c2c1ncn2CCOCCCc1cccnc1",
    "CLASS_LABEL": "false"
  },
  {
    "STRUCTURE_STRING": "CCOCc1nc2c(N)nc3ccccc3c2n1CC(C)(C)NC(=O)C1CCCCC1",
    "CLASS_LABEL": "true"
  },
  {
    "STRUCTURE_STRING": "CCOCc1nc2c(N)nc3ccccc3c2n1NC(C)C",
    "CLASS_LABEL": "false"
  }
]
